- assayProtocol: Pharmacokinetic assay in rat in vivo
- reportedConditions: Sprague-Dawley (SD), plasma, male SD rats, PO(4 mg/kg), intragastric, read-out: T1/2 (half-life) (converted)
propertyMeasured: half-life (h)

Below, 3 compounds whose answers are already recorded.
{"molSmiles": "Nc1ncc(-c2ccc3ncc4ccc(=O)n(-c5cccc(C(F)(F)F)c5)c4c3n2)cn1", "measurementUnit": "h", "valueMeasured": 1.44}
{"molSmiles": "Nc1ccc(-c2ccc3ncc4ccc(=O)n(-c5cccc(C(F)(F)F)c5)c4c3n2)cn1", "measurementUnit": "h", "valueMeasured": 2.78}
{"molSmiles": "CC(=O)Nc1ccc(-c2ccc3ncc4ccc(=O)n(-c5cccc(C(F)(F)F)c5)c4c3n2)cn1", "measurementUnit": "h", "valueMeasured": 2.36}

1: COc1ncc(-c2ccc3ncc4ccc(=O)n(-c5cccc(C(F)(F)F)c5)c4c3n2)cn1
2: N#Cc1ccc(-c2ccc3ncc4ccc(=O)n(-c5cccc(C(F)(F)F)c5)c4c3n2)cn1
3: O=c1ccc2cnc3ccc(-c4c[nH]c5ncccc45)nc3c2n1-c1cccc(C(F)(F)F)c1
(Q) Endpoint returns the given compounds ordered by ascending half-life. List the labels in the requested order.
(A) 2, 1, 3

====

- assayProtocol: Pharmacokinetic assay in rat in vivo
- reportedConditions: Sprague-Dawley (SD), plasma, male SD rats, PO(4 mg/kg), intragastric
propertyMeasured: AUC(0-t) (ng·h/mL)

Consider the worked cases shown below.
{"molecule": "Nc1ccc(-c2ccc3ncc4ccc(=O)n(-c5cccc(C(F)(F)F)c5)c4c3n2)cn1 [Compound 1]", "AUC(0-t), ng·h/mL": 1030}
{"molecule": "COc1ncc(-c2ccc3ncc4ccc(=O)n(-c5cccc(C(F)(F)F)c5)c4c3n2)cn1 [Compound 14]", "AUC(0-t), ng·h/mL": 445}

A: CC(=O)Nc1ccc(-c2ccc3ncc4ccc(=O)n(-c5cccc(C(F)(F)F)c5)c4c3n2)cn1 [Compound 15]
B: Nc1ccc(-c2ccc3ncc4ccc(=O)n(-c5cccc(C(F)(F)F)c5)c4c3c2)cn1 [Torin-2, reference compound]
(Q) Sort A and B by AUC(0-t) descending and give the first. Refer to your chosen entry by its label in the reply.
(A) A

====

- assayProtocol: Pharmacokinetic assay in rat in vivo
- reportedConditions: Sprague-Dawley (SD), plasma, male SD rats, PO(4 mg/kg), intragastric
propertyMeasured: AUC(0-t) (ng·h/mL)

{"molSmiles": "N#Cc1ccc(-c2ccc3ncc4ccc(=O)n(-c5cccc(C(F)(F)F)c5)c4c3n2)cn1", "AUC(0-t), ng·h/mL": 410}

P: Nc1ncc(-c2ccc3ncc4ccc(=O)n(-c5cccc(C(F)(F)F)c5)c4c3n2)cn1
Q: O=c1ccc2cnc3ccc(-c4c[nH]c5ncccc45)nc3c2n1-c1cccc(C(F)(F)F)c1
(Q) Would you kindly point out which of P and Q has the smaller AUC(0-t) figure? Field: selected label. Fill in the label of the entry you choose.
(A) Q
(Q: 212 ng·h/mL, P: 707 ng·h/mL)

====

pIC50: −log10 of the molar value.
As a worked illustration, we turn to pIC50 data collected for PI3Kα (Homo sapiens, UniProt P42336).
propertyMeasured: pIC50

{"molSmiles": "COc1ncc(-c2ccc3ncc4ccc(=O)n(-c5cccc(C(F)(F)F)c5)c4c3n2)cn1", "pIC50": 8.06}

A: O=c1ccc2cnc3ccc(-c4c[nH]c5ncccc45)nc3c2n1-c1cccc(C(F)(F)F)c1
B: CC(=O)Nc1ccc(-c2ccc3ncc4ccc(=O)n(-c5cccc(C(F)(F)F)c5)c4c3n2)cn1
(Q) Out of A and B , name the one with the higher pIC50. Answer = label.
(A) B
(B: 8.21, A: 7.35)

I: O=c1ccc2cnc3ccc(-c4cnc5[nH]ccc5c4)nc3c2n1-c1cccc(C(F)(F)F)c1
II: O=c1ccc2cnc3ccc(-c4ccc(-n5cccn5)nc4)nc3c2n1-c1cccc(C(F)(F)F)c1
(Q) Identify the entry with the larger pIC50. Options: I and II Pick one; state its label.
(A) I
(I: 8.60, II: 6.98)

Reference for the values: patent US9475812B2
